experiment: MTT cytotoxicity assay, BEAS-2B; type: cell-based; conditions: human, BEAS-2B cells (human bronchial epithelial), normal cell line BEAS-2B, 0.19–100 μM
Measured Metric: IC50 at 72 h

[in] Given the compound C=C1C2CCC3(O)C4(C)CCCC(C)(C(=O)OC)C4CCC3(C2)C1OC(=O)C(C)=CC (centres unmarked) , write its reported IC50 at 72 h.
[out] > 100 µM

[in] Indicate the recorded IC50 at 72 h value for this compound: C=C1C2CCC3C4(C)CCCC(C)(C(=O)O)C4CCC3(C2)C1OC(=O)C(C)=CC (centres unmarked)
[out] > 100 µM

[in] Dear colleague, please send me the reported IC50 at 72 h for C=C1C[C@@]23CC[C@@H]4C(C)(C)CCC[C@@]4(C)C2=CC(=O)C1C3 when you can.
[out] > 100 µM

[in] Give the reported value of IC50 at 72 h for this record: C=C1C2CCC3(O)C4(C)CCCC(C)(C(=O)O)C4CCC3(C2)C1OC(=O)C(C)=CC (centres unmarked)
[out] 89.9 µM

[in] Supply measured IC50 at 72 h of CC(=O)O[C@H]1C(=O)[C@@]2(C)[C@H]([C@H](OC(=O)c3ccccc3)[C@]3(O)C[C@H](OC(=O)[C@H](O)[C@@H](NC(=O)c4ccccc4)c4ccccc4)C(C)=C1C3(C)C)[C@]1(OC(C)=O)CO[C@@H]1C[C@@H]2O [Paclitaxel, reference compound] in your reply.
[out] < 0.1 µM

[in] // Input: C=C1CC23CCC4C(C)(C(=O)OC)CCCC4(C)C2CCC1C3 (stereo not drawn) [Compound 10, methyl-ent-kaur-16-en-19-oate] . Output its IC50 at 72 h only.
[out] > 100 µM

[in] In one line, give reported IC50 at 72 h of the entry C=C1C2CCC3C4(C)CCCC(C)(C(=O)OC)C4CCC3(C2)C1OC(=O)C(C)=CC (centres unmarked) .
[out] > 100 µM

[in] Give reported IC50 at 72 h value for C[C@@H]1C[C@@]23CC[C@@H]4[C@](C)(C(=O)O)CCC[C@@]4(C)C2=CC[C@@H]1C3
[out] > 100 µM

[in] Provide only the value of recorded IC50 at 72 h for CO[C@@]1(C)C[C@@]23CC[C@@H]4[C@](C)(C(=O)O)CCC[C@@]4(C)C2=CC[C@@H]1C3
[out] > 100 µM

[in] Supply recorded IC50 at 72 h for CC=C(C)C(=O)OC1C23CCC4C(C)(C(=O)O)CCCC4(C)C2CCC(C3)C12CO2 (centres unmarked) here.
[out] > 100 µM

[in] Specify reported IC50 at 72 h for the compound shown: C=C1CC23CCC4C(C)(C(=O)O)CCCC4(C)C2CCC1C3 (centres unmarked)
[out] > 100 µM
